# Tested on: MDA-MB-468
# Procedure details: Cytotoxicity against human MDA-MB-468 cells at 10 uM
# Type: functional
# Test parameters: read-out: GI
Parameter threshold = 40%. Response is 1 (yes) when inhibition of growth at 10 µM meets or exceeds it, else 0 (no).

1. Cc1cc(S(=O)(=O)NC(=N)NCc2ccc(S(N)(=O)=O)cc2)c(SCc2ccc(C(F)(F)F)cc2)cc1Cl | 0 (no)
2. Cc1cc(S(=O)(=O)NC(=N)NCc2ccc(S(N)(=O)=O)cc2)c(SCc2cc3c(cc2Cl)OCO3)cc1Cl | 1 (yes)
3. Cc1cc(S(=O)(=O)NC(=N)NCc2ccc(S(N)(=O)=O)cc2)c(SCc2ccccc2)cc1Cl | 1 (yes)

Hello, I need to know if "Cc1cc(S(=O)(=O)NC(=N)Nc2cccc(S(N)(=O)=O)c2)c(SCc2ccc(C(F)(F)F)cc2)cc1Cl" has measured inhibition of growth at 10 µM not below 40%. Thanks!
0 (no)

Hello, I need to know if "Cc1cc(S(=O)(=O)NC(=N)Nc2nnc(S(N)(=O)=O)s2)c(SCc2ccccc2)cc1Cl" has measured inhibition of growth at 10 µM not below 40%. Thanks!
0 (no)

Hello, I need to know if "Cc1cc(S(=O)(=O)NC(=N)Nc2cccc(S(N)(=O)=O)c2)c(SCc2ccccc2)cc1Cl" has measured inhibition of growth at 10 µM not below 40%. Thanks!
0 (no)

Hello, I need to know if "Cc1cc(S(=O)(=O)NC(=N)Nc2ccc(S(N)(=O)=O)cc2)c(SCc2ccc(C(F)(F)F)cc2)cc1Cl" has measured inhibition of growth at 10 µM not below 40%. Thanks!
1 (yes)
